details: bifidobacterium adolescentis, 12 h, 2 µM
Description: The drug is tested on Bifidobacterium adolescentis strain: ATCC 15703 for biotransformation. The drug concentrations were measured before and after a 12-h incubation by liquid-chromatography-coupled mass spectrometry (LC–MS)
parameter.measured: Bacterial Biotransformation

Field: example entries. Status: answers known.
molecule	Bacterial Biotransformation
O=C1CC2(CCCC2)CC(=O)N1CCCCN1CCN(c2ncccn2)CC1	Compound NOT metabolized
CNCC[C@H](Oc1cccc2ccccc12)c1cccs1	Compound NOT metabolized
CN1C(=O)CCS(=O)(=O)C1c1ccc(Cl)cc1 (stereo unspecified)	Compound NOT metabolized
Cc1ccc(S(=O)(=O)NC(=O)NN2CCCCCC2)cc1 [TOLAZAMIDE]	Compound NOT metabolized
CN(C)C(=O)C(CCN1CCC(O)(c2ccc(Cl)cc2)CC1)(c1ccccc1)c1ccccc1 [LOPERAMIDE]	Compound NOT metabolized

Reported Bacterial Biotransformation for O=c1[nH]c2ccccc2n1C1CCN(CCCC(c2ccc(F)cc2)c2ccc(F)cc2)CC1 [PIMOZIDE] : what is it?
Compound NOT metabolized

Could you share which Bacterial Biotransformation value was measured for CCN(CC)CC#CCOC(=O)C(O)(c1ccccc1)C1CCCCC1.Cl (stereo unspecified) [OXYBUTYNIN CHLORIDE] ?
Compound NOT metabolized

Any idea what Bacterial Biotransformation was measured for COc1ccccc1N1CCN(CC(O)COc2cccc3ccccc23)CC1 (stereo unspecified) ?
Compound NOT metabolized

Which measured Bacterial Biotransformation value corresponds to C[C@H]1O[C@@H](O[C@H]2[C@@H](O)C[C@H](O[C@H]3[C@@H](O)C[C@H](O[C@H]4CC[C@@]5(C)[C@H](CC[C@@H]6[C@@H]5C[C@@H](O)[C@]5(C)[C@@H](C7=CC(=O)OC7)CC[C@]65O)C4)O[C@@H]3C)O[C@@H]2C)C[C@H](O)[C@@H]1O ?
Compound NOT metabolized

Need Bacterial Biotransformation of COc1ccnc(C[S+]([O-])c2nc3ccc(OC(F)F)cc3[nH]2)c1OC (stereo unspecified) , thanks.
Compound metabolized

Please look up its Bacterial Biotransformation: CNC(=C[N+](=O)[O-])NCCSCc1ccc(CN(C)C)o1
Compound metabolized

Consider the molecule shown here: NC(CO)(CO)CO.O=C(c1ccccc1)c1ccc2n1CCC2C(=O)O (stereo unspecified) What is its recorded Bacterial Biotransformation?
Compound NOT metabolized

For the molecule O=C1C(CC[S+]([O-])c2ccccc2)C(=O)N(c2ccccc2)N1c1ccccc1 (stereo unspecified) , what Bacterial Biotransformation is on record?
Compound NOT metabolized

Form field: reported Bacterial Biotransformation of CC(=O)OCC(=O)[C@@]12N=C(C)O[C@@H]1C[C@H]1[C@@H]3CCC4=CC(=O)C=C[C@]4(C)[C@H]3[C@@H](O)C[C@@]12C
Compound metabolized

# get_value(readout='Bacterial Biotransformation', item= CN(C)CCOC(C)(c1ccccc1)c1ccccn1.O=C(O)CCC(=O)O (stereo unspecified) [DOXYLAMINE SUCCINATE] )
Compound NOT metabolized

Entry c1ccc([C@H]2CN3CCSC3=N2)cc1 : reported Bacterial Biotransformation = ?
Compound NOT metabolized
